# collection of Kd values tested on PDGFR-β (Homo sapiens)
# Sequence (P09619 33-1106): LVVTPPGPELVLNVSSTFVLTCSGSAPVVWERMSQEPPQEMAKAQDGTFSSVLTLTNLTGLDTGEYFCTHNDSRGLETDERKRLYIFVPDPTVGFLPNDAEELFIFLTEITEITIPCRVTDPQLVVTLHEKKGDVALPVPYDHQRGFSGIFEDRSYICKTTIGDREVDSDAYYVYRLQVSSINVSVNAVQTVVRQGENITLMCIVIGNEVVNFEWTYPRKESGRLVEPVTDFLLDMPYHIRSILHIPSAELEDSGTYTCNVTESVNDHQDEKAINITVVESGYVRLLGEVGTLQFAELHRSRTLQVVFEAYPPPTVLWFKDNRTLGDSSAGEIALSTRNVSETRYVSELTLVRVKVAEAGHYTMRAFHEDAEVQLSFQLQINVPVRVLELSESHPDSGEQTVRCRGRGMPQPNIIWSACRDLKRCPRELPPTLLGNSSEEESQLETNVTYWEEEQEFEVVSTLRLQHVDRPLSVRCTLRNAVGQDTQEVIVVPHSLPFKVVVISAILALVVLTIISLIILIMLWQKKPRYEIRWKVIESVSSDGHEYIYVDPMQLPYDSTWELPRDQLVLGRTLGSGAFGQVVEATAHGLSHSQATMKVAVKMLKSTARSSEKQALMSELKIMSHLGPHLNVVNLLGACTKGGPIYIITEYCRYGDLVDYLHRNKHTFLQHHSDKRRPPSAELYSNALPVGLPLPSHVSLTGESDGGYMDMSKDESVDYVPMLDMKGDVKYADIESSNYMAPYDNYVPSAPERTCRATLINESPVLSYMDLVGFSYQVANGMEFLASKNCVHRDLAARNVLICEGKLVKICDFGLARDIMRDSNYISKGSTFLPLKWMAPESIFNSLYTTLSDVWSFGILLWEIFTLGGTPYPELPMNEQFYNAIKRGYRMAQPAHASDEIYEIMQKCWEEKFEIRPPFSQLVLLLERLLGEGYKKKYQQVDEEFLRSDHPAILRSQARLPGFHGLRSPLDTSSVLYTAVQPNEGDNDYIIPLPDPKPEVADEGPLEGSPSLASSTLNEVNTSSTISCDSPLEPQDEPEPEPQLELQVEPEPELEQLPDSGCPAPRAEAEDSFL

# input Could you tell me which Kd is on file for COc1cccc(-c2cc3c(Oc4ccc(Cl)cc4)ncnc3[nH]2)c1 [Compound D22] ?
# output 100 to 1000 nM

# input Could you tell me which Kd is on file for Cc1ccc(Sc2ncnc3[nH]c(-c4ccc(O)cc4)cc23)cc1 [Compound L9] ?
# output 1000 to 10000 nM

# input Could you tell me which Kd is on file for COc1ccc(-c2cc3c(Oc4cccc(OC)c4)ncnc3[nH]2)cc1 [Compound D7] ?
# output 100 to 1000 nM

----------
quantity: Kd

# input Please provide the recorded Kd for Oc1ccc(-c2cc3c(Sc4cccc(Cl)c4)ncnc3[nH]2)cc1 , tested on PLK 4 (Homo sapiens).
# Sequence (O00444 whole entry): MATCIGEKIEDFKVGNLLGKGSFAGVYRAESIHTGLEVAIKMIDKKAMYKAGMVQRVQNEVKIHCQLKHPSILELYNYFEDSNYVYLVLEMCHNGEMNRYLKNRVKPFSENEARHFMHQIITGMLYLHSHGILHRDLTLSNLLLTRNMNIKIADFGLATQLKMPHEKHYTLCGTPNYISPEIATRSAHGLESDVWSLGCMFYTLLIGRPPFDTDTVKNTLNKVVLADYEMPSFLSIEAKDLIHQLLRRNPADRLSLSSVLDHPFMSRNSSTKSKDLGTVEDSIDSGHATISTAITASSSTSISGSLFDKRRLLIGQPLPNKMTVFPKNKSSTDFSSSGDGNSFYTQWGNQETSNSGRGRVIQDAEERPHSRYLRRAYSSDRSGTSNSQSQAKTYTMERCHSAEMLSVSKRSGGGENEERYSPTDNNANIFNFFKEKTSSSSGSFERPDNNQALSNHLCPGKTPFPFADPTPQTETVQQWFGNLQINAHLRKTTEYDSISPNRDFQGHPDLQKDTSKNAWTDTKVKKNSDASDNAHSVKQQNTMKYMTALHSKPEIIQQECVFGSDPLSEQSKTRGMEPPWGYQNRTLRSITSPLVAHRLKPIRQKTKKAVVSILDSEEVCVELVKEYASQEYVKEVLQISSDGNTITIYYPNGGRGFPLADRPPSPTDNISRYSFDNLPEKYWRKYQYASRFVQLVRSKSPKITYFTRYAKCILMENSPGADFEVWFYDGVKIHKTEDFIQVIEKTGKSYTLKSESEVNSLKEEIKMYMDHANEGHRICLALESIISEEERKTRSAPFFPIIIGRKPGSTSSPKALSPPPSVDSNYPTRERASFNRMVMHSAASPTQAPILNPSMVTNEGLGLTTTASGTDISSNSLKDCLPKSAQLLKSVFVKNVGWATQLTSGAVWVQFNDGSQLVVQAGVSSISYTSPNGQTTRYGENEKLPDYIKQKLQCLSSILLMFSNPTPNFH
# output > 10 µM

----------
Target: inactive form of KIT, which contains the autoinhibitory juxtamembrane domain (Homo sapiens)
Sequence (P10721 546-976 limits assumed): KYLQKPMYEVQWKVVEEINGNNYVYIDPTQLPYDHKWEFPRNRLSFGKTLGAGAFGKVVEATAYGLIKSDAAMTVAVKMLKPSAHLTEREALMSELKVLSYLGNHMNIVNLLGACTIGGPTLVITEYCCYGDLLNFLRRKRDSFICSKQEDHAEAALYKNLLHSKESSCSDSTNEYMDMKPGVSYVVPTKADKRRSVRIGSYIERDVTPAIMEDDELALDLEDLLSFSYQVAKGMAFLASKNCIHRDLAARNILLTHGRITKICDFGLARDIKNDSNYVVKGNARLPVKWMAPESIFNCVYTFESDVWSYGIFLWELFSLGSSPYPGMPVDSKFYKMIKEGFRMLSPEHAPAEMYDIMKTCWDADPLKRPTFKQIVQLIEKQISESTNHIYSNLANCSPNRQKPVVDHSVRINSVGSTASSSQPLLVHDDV
Experiment: KIT (DKIN) Binding Assay
Settings: inactive form of KIT with autoinhibitory juxtamembrane domain
Excerpt: Methods for measuring binding affinities for interactions between small molecules and kinases including FLT3, c-KIT, ABL(T334I) [a.k.a. […] The components of the assays include human kinases expressed as fusions to T7 bacteriophage particles and immobilized ligands that bind to the ATP site of the kinases. […] Described in the exemplary assays below is data from binding with varying kinases. […] The term “ND” represents non-determined values.
quantity: Kd

# input Could you tell me which Kd is on file for COc1ccc(-c2cc3c(Sc4ccccc4)ncnc3[nH]2)cc1 [Compound J16] ?
# output 1 to 10 µM
